// IC50 lookup, one value per entry
target: Hepatitis C virus NS3 helicase; experiment: HCV NS3 helicase inhibitor potency, late-stage follow-up, biochemical, fluorescence, dose response (AID 2474); settings: recombinant NS3 helicase, fluorescence unwinding assay

CCCCCOc1ccc(C2C(C(=O)c3ccc(C)o3)=C(O)C(=O)N2c2cc(C)on2)cc1 (configuration not stated) :: 1810 nM
COc1cc(C2C(C(=O)c3ccc(C)o3)=C(O)C(=O)N2c2cc(C)on2)ccc1OCc1ccccc1 (configuration not stated) :: 1630 nM
COc1cccc(-n2c(SCc3cc(=O)oc4cc(O)c(O)cc34)nc3ccccc3c2=O)c1 :: 2880 nM
CCOc1cccc(C2C(C(=O)c3ccc(C)o3)=C(O)C(=O)N2Cc2ccccc2)c1 (configuration not stated) :: 5290 nM
COc1ccc(C=NNC(=O)c2cc(O)c(O)c(O)c2)cc1COc1ccc(C(=O)OCC(C)C)cc1 :: 9370 nM

Quote IC50 reported for Cc1cc(N2C(=O)C(O)=C(C(=O)c3ccc(C)o3)C2c2ccc(OCc3ccccc3)cc2)no1 (configuration not stated) please.
1470 nM

Quote IC50 reported for Cc1ccc(C(=O)C2=C(O)C(=O)N(Cc3ccco3)C2c2cccc(Cl)c2)o1 (configuration not stated) please.
6590 nM
